assay: RAM signaling pathway blockade in yeast – S. cerevisiae, Pdr1DBD-CYC8 efflux-inhibited sensitized strain, primary screen (AID 1298);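 also: 0% = DMSO untreated cells without growth and 100% = 10 µM 1-NA-PP1 full growth; higher means more yeast growth rescued from 5-FOA killing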; details: S. cerevisiae cbk1-as DSE1-URA3 strain, 5-FOA growth OD615, 2 d; at 50 µM; hits give high values
Active and inactive are the calls of the source.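 The calls were made as follows: active = RAM network inhibition above 8.4% in each of two replicates, 3 SD over the compound average; inconclusive = above 8.4% inhibition in only one replicate; inactive = 8.4% inhibition or less in each replicate.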
VALUE_TYPE: RAM network inhibition

Problem: Query (compound): CC(=O)Nc1ccc(S(=O)(=O)Nc2nc(C)cc(-n3nc(C)cc3C)n2)cc1 ; field requested: RAM network inhibition
Result: 2.89% (inactive)

Problem: And then COc1cccc(N2CCN(C(=O)C3CCCN(S(=O)(=O)c4cnc[nH]4)C3)CC2)c1 (centres undefined) , what is it?
Result: -0.88% (inactive)

Problem: Try this compound next: Cn1c(SCc2c(F)cccc2Cl)nnc1-c1cnccn1
Result: 5.07% (inactive)

Now turn to the next compound.
Problem: Which RAM network inhibition is reported for this compound? O=C(C1CCC(Cn2c(=O)[nH]c3ccccc3c2=O)CC1)N1CCN(c2ccccc2)CC1 (centres undefined)
Result: 6.69% (inactive)

* * *

assay: Restrictive medium S. cerevisiae growth inhibition, OD615, pilot screen of yeast lifespan reduction project, restrictive growth control (AID 706); conditions: OD615, 48 h, at 10 µM, hits give high values;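 also: modified DeaD lifespan yeast strain shifted to restrictive glucose medium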
VALUE_TYPE: growth inhibition (%)
Numeric only. Scale: %

Here's what some known entries look like.
Problem: Dear colleague, I am looking for the recorded growth inhibition of the following molecule: CCc1ccc(N2C(=O)c3sc4nnc(C)c(=O)n4c3C2=O)cc1
Result: -7.66

Problem: Next up: COc1cccc(C2NC(=O)NC(C)=C2C(=O)OCCSC)c1OC (stereo not given)
Result: -16.4

Problem: Similarly, CC1=CC(c2ccccc2)n2nc(NS(=O)(=O)c3ccc(C)cc3)nc2N1 (stereo not given) ?
Result: 5.79

Problem: Same read-out for COC(=O)c1nnn(Cc2ccccc2)c1N ?
Result: -7.86

Problem: Now the molecule CCN1CCN(CC(=O)NC2CCCC2)C(=O)C1=O
Result: -5

More entries:
Problem: Can you look up the measured growth inhibition of Cc1cc2cc(CNC(=O)Cc3cccs3)ccc2n1C for me?
Result: 3.17

Problem: Please answer likewise for CCC(=O)Nc1c(OC(=O)CC)ccc2c(C)cc(=O)oc12
Result: 4.76

Problem: Please do the same for CCCCN(C)CCNC(=O)Cn1c(=O)sc2ccccc21 as well.
Result: 4.21

Problem: Same question, CCN(CC)c1ccc(C=Nc2ccc(C#N)cc2)c(O)c1 this time
Result: -19.5

Problem: Same question, O=C(O)CC1C(=O)NCCN1Cc1ccc(F)c(F)c1 (stereo not given) this time
Result: 3.21

* * *

assay: growth suppression of beta-catenin knockout HCT116, pilot screen, human colon tumor cells (AID 823); conditions: CellTiter-Glo, 60 h, at 10 µM, hits give low values;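 also: 0% = wells killed by 20 µM Hyamine and 100% = untreated DMSO cell wells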
Records with an inconclusive call do not appear.
Listed next: entries and their corresponding viability.
I only need the number, in %, no unit after it.

As a guide, the following entries are already answered.
Problem: Would you mind telling me what viability value was observed for CCN(CC)C(=O)C1CCN(S(=O)(=O)c2ccc(C3CNC(=O)C3)cc2)CC1 (stereo unspecified) ?
Result: 99.9

Problem: // next record CCCCn1c2nc3ccccc3nc2c2c(=N)oc(C)nc21
Result: 96.6

Problem: What would you report for CN(C)S(=O)(=O)N1CCC(Cc2ccccc2)CC1 ?
Result: 85.3

Continuing:
Problem: Reported viability for Cc1cc(C)n(-c2nc3ccccc3nc2N2CCOCC2)n1 : what is it?
Result: 98

Problem: Would you kindly repeat that for COc1ccc(-n2nc3c(c2NC(=O)C24CC5CC(CC(C5)C2)C4)CS(=O)C3)cc1 (stereo unspecified) ?
Result: 97.2

Problem: Another compound: COc1ccc(CC(=O)N2CCN=C2SC)cc1
Result: 99.3

Problem: CCn1c(SCc2nc(-c3ccccc3)no2)nc2ccccc21 , same question.
Result: 93.1

Problem: Can you handle CCn1cc(C2N3CC4(C)CN2CC(C)(C3)C4=O)c2ccccc21 (stereo unspecified) next?
Result: 97.3

Problem: One more compound: C=CCOC(=O)CCP(=O)(CCC(=O)OCC=C)c1ccccc1
Result: 96.5

Problem: Same read-out for CC1CCN(c2nc3ccccc3nc2C(C#N)S(=O)(=O)c2ccccc2)CC1 (stereo unspecified) ?
Result: 91.4

Problem: Same lookup for CCOC(=O)N1CCN(C(=O)CN(c2cc(C(F)(F)F)ccc2Cl)S(C)(=O)=O)CC1 , please.
Result: 103

Problem: Queued: CCN(CC)S(=O)(=O)c1cc(C(=O)Nc2ccc(Cl)cn2)ccc1C
Result: 52.9

Problem: Also Oc1cc(Cc2ccccc2)cnc1CN1CCOCC1 , if possible.
Result: 96.8

Problem: Again, but for O=C(O)C1C2C=CC(C2)C1C(=O)OCC1CCCO1 (stereo unspecified)
Result: 98.1

Problem: Now consider COc1ccc(Br)cc1S(=O)(=O)N1CCN=C1C and answer again.
Result: 91.1

Problem: Another compound: COc1ccc(Cl)cc1NC(=O)c1cnc2sccn2c1=O
Result: 82.9
